# System: primary human hepatic stellate cells (donor 1)
# assaySummary: ACTA2 mRNA fold change vs DMSO (normalised to PSMB2); higher = more ACTA2 expression
# conditionParameters: 48 h
metric: ACTA2 mRNA fold change

Field: example entries. Status: answers known.
{"molecule": "Fc1cc(F)c2c(c1)[C@H]1C=CC[C@H]1C(c1cccnc1)N2 (stereo partly specified) [Golgicide A] (33.3333 µM)", "ACTA2 mRNA fold change": 0.00835}
{"molecule": "COc1ccc2[nH]cc(C3=CCNCC3)c2c1 (33.3333 µM)", "ACTA2 mRNA fold change": 3.02}
{"molecule": "CN[C@@H]1C[C@H]2O[C@@](C)([C@@H]1OC)n1c3ccccc3c3c4c(c5c6ccccc6n2c5c31)C(=O)NC4 [staurosporine] (35.6667 µM)", "ACTA2 mRNA fold change": 0.667}
{"molecule": "CC[C@H]1CN2CCc3cc(OC)c(OC)cc3[C@@H]2C[C@@H]1C[C@H]1NCCc2cc(OC)c(OC)cc21 [Emetine] (12.0333 µM)", "ACTA2 mRNA fold change": 0.0996}
{"molecule": "O=c1[nH]c2ccccc2n1C1CCN(CCCC(c2ccc(F)cc2)c2ccc(F)cc2)CC1 [Pimozide] (33.3333 µM)", "ACTA2 mRNA fold change": 0.0136}

# next molecule below
Ask: Name the recorded ACTA2 mRNA fold change for O=C1C2CCN(CC2)C1(CO)CO (90 µM) .
Result: 0.152

###

# Test system: primary human hepatic stellate cells (donor 1)
# assaySummary: PSMB2 reference mRNA level vs DMSO (fold); higher = more PSMB2 expression
# conditionParameters: 48 h
Structures can show the parent of a compound that is named as a salt.
metric: PSMB2 reference mRNA level

{"molecule": "O=c1[nH]c2ccccc2n1C1CCN(CCCC(c2ccc(F)cc2)c2ccc(F)cc2)CC1 [Pimozide] (33.3333 µM)", "metric": "PSMB2 reference mRNA level", "result": 0.0111}
{"molecule": "CN(C(=O)Cc1ccc(Cl)c(Cl)c1)[C@H](CN1CCCC1)c1ccccc1 [ICI-199,441 hydrochloride] (33.3333 µM)", "metric": "PSMB2 reference mRNA level", "result": 0.128}
{"molecule": "C[C@]12CC[C@H](O)C[C@H]1CC[C@@H]1[C@@H]2CC[C@]2(C)[C@@H](C3=CC(=O)OC3)CC[C@]12O [Digitoxigenin] (33.3333 µM)", "metric": "PSMB2 reference mRNA level", "result": 0.954}
{"molecule": "C[C@H](N)Cn1ccc2cc(F)c(Cl)cc21 [Ro 60-0175 fumarate] (33.3333 µM)", "metric": "PSMB2 reference mRNA level", "result": 0.297}
{"molecule": "Fc1cc(F)c2c(c1)[C@H]1C=CC[C@H]1C(c1cccnc1)N2 (stereo not given in full) [Golgicide A] (33.3333 µM)", "metric": "PSMB2 reference mRNA level", "result": 0.431}
{"molecule": "CN1[C@@H]2CC[C@H]1C[C@@H](OC(c1ccc(F)cc1)c1ccc(F)cc1)C2 [3 α-Bis-(4-fluorophenyl) methoxytropane hydrochloride] (33.3333 µM)", "metric": "PSMB2 reference mRNA level", "result": 0.247}

Ask: // map O=[N+]([O-])/C=C/c1ccc2c(c1)OCO2 (3.7 µM) to recorded PSMB2 reference mRNA level (system: primary human hepatic stellate cells (donor 1))
Result: 1

Ask: // map O=C1C2CCN(CC2)C1(CO)CO (90 µM) to recorded PSMB2 reference mRNA level (system: primary human hepatic stellate cells (donor 1))
Result: 0.115

Ask: // map CCCCCCCCCCCCCC(=O)O[C@@H]1[C@@H](C)[C@@]2(O)[C@@H](C=C(CO)C[C@]3(O)C(=O)C(C)=C[C@@H]23)[C@@H]2C(C)(C)[C@]12OC(C)=O [Phorbol 12-myristate 13-acetate] (27.0333 µM) to recorded PSMB2 reference mRNA level (system: primary human hepatic stellate cells (donor 1))
Result: 0.829

Ask: // map CC(C(=O)OC1CC2CCC(C1)N2C)c1ccc(Br)cc1 (stereo not given) [PG-9 maleate] (33.3333 µM) to recorded PSMB2 reference mRNA level (system: primary human hepatic stellate cells (donor 1))
Result: 1.01

###

# Tested on: primary human hepatic stellate cells (donor 1)
# assaySummary: ACTA2 mRNA fold change vs DMSO (normalised to PSMB2); higher = more ACTA2 expression
# conditionParameters: 48 h
Where a name gives a salt, the structure may show the parent alone.
metric: ACTA2 mRNA fold change

{"molecule": "CN(C(=O)Cc1ccc(Cl)c(Cl)c1)[C@H](CN1CCCC1)c1ccccc1 [ICI-199,441 hydrochloride] (33.3333 µM)", "ACTA2 mRNA fold change": 0.0655}
{"molecule": "C[C@H](N)Cn1ccc2cc(F)c(Cl)cc21 [Ro 60-0175 fumarate] (33.3333 µM)", "ACTA2 mRNA fold change": 0.532}
{"molecule": "CCN(CC)CCO[C@H]1CC[C@@]2(C)C(=CC[C@@H]3[C@@H]2CC[C@]2(C)C(=O)CC[C@@H]32)C1 (33.3333 µM)", "ACTA2 mRNA fold change": 0.123}
{"molecule": "COc1ccc2c(c[n+](C)c3c4cc5c(cc4ccc23)OCO5)c1OC (6.66667 µM)", "ACTA2 mRNA fold change": 0.0494}
{"molecule": "O=C1/C(=C/c2ccccc2)C[C@@]2(O)[C@H]3Cc4ccc(O)c5c4[C@@]2(CCN3CC2CC2)[C@H]1O5 [BNTX maleate] (33.3333 µM)", "ACTA2 mRNA fold change": 0.275}

Ask: // map CCCCCCCCCCCCCC(=O)O[C@@H]1[C@@H](C)[C@@]2(O)[C@@H](C=C(CO)C[C@]3(O)C(=O)C(C)=C[C@@H]23)[C@@H]2C(C)(C)[C@]12OC(C)=O [Phorbol 12-myristate 13-acetate] (27.0333 µM) to recorded ACTA2 mRNA fold change (system: primary human hepatic stellate cells (donor 1))
Result: 0.624

###

Reported COL1A1 mRNA fold change is given for each of the following compounds.
# Test system: primary human hepatic stellate cells (donor 1)
# assaySummary: COL1A1 mRNA fold change vs DMSO (normalised to PSMB2); higher = more COL1A1 expression, active = hit call of the paper
# conditionParameters: 48 h
Counter-ions that a name gives are not always drawn.
Please reply with the value in numeric form only.

Field: example entries. Status: answers known.
{"compound": "COc1ccc2c(c[n+](C)c3c4cc5c(cc4ccc23)OCO5)c1OC (6.66667 µM)", "assayedSystem": "primary human hepatic stellate cells (donor 1)", "COL1A1 mRNA fold change": 0.204}
{"compound": "COc1ccc2[nH]cc(C3=CCNCC3)c2c1 (33.3333 µM)", "assayedSystem": "primary human hepatic stellate cells (donor 1)", "COL1A1 mRNA fold change": 2.45}
{"compound": "C[C@H](N)Cn1ccc2cc(F)c(Cl)cc21 [Ro 60-0175 fumarate] (33.3333 µM)", "assayedSystem": "primary human hepatic stellate cells (donor 1)", "COL1A1 mRNA fold change": 2.21}
{"compound": "CCN1CCN(C(=O)Cc2ccc(Nc3ncc(F)c(Nc4ccc(C(=O)Nc5ccccc5Cl)cc4)n3)cc2)CC1 [Aurora A Inhibitor I] (33.3333 µM)", "assayedSystem": "primary human hepatic stellate cells (donor 1)", "COL1A1 mRNA fold change": 0.0414}
{"compound": "CN[C@@H]1C[C@H]2O[C@@](C)([C@@H]1OC)n1c3ccccc3c3c4c(c5c6ccccc6n2c5c31)C(=O)NC4 [staurosporine] (35.6667 µM)", "assayedSystem": "primary human hepatic stellate cells (donor 1)", "COL1A1 mRNA fold change": 0.11}
{"compound": "Fc1cc(F)c2c(c1)[C@H]1C=CC[C@H]1C(c1cccnc1)N2 (stereo not given in full) [Golgicide A] (33.3333 µM)", "assayedSystem": "primary human hepatic stellate cells (donor 1)", "COL1A1 mRNA fold change": 0.111}
{"compound": "CC1=C(CC/C(C)=C/CCC2=CC[C@H](C3=CC(=O)O[C@H]3O)O[C@H]2O)C(C)(C)CCC1 [Manoalide] (40 µM)", "assayedSystem": "primary human hepatic stellate cells (donor 1)", "COL1A1 mRNA fold change": 0.236}
{"compound": "CC1=NCCc2c1[nH]c1cc(O)ccc21 [Harmalol hydrochloride dihydrate] (24.4333 µM)", "assayedSystem": "primary human hepatic stellate cells (donor 1)", "COL1A1 mRNA fold change": 1.24}

Ask: Name the recorded COL1A1 mRNA fold change for CC(C(=O)OC1CC2CCC(C1)N2C)c1ccc(Br)cc1 (stereo not given) [PG-9 maleate] (33.3333 µM) .
Result: 0.598

Ask: Name the recorded COL1A1 mRNA fold change for O=[N+]([O-])/C=C/c1ccc2c(c1)OCO2 (3.7 µM) .
Result: 0.638

Ask: Name the recorded COL1A1 mRNA fold change for CCCCCCCCCCCCCC(=O)O[C@@H]1[C@@H](C)[C@@]2(O)[C@@H](C=C(CO)C[C@]3(O)C(=O)C(C)=C[C@@H]23)[C@@H]2C(C)(C)[C@]12OC(C)=O [Phorbol 12-myristate 13-acetate] (27.0333 µM) .
Result: 0.71

Ask: Name the recorded COL1A1 mRNA fold change for CC1=C(O)C(=O)C=C2C1=CC=C1[C@@]2(C)CC[C@@]2(C)[C@@H]3C[C@](C)(C(=O)O)CC[C@]3(C)CC[C@]12C [Celastrol] (3.33333 µM) .
Result: 1.09

Ask: Name the recorded COL1A1 mRNA fold change for CN1[C@@H]2CC[C@H]1C[C@@H](OC(c1ccc(F)cc1)c1ccc(F)cc1)C2 [3 α-Bis-(4-fluorophenyl) methoxytropane hydrochloride] (33.3333 µM) .
Result: 1.54

Ask: Name the recorded COL1A1 mRNA fold change for O=c1[nH]c2ccccc2n1C1CCN(CCCC(c2ccc(F)cc2)c2ccc(F)cc2)CC1 [Pimozide] (33.3333 µM) .
Result: 0.027

Ask: Name the recorded COL1A1 mRNA fold change for CCN(CC)CCO[C@H]1CC[C@@]2(C)C(=CC[C@@H]3[C@@H]2CC[C@]2(C)C(=O)CC[C@@H]32)C1 (33.3333 µM) .
Result: 0.921
